assay: chemical genetic growth profiling, strain panel (AID 1159580);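 note: tested at 20 µM; growth read once vehicle control cultures reached saturation at 30 °C; 1 = growth at the plate median or of vehicle wells; lower values mean less growth of the strain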; conditions: S. cerevisiae deletion strains, growth OD, locus YBR023C, strain chs3, hits give low values
The whole screen tested about 5,500 compounds, of which about 2,000 (36%) were called active. About 18% were inconclusive and are not listed. The list shows a part of the results.
The entries below are paired with their reported normalized growth.

{"compound": "O=C(O)CCC(=O)OC[C@@H](NC(=O)C(Cl)Cl)[C@H](O)c1ccc([N+](=O)[O-])cc1", "normalized growth": 0.976}
{"compound": "CC(=O)NS(=O)(=O)c1ccc(N)cc1", "normalized growth": 1.01}
{"compound": "CC(C)CCCC(C)N (stereo not given)", "normalized growth": 1.03}
{"compound": "C[C@H]1C(=O)CCC2[C@]3(C)CC[C@@]4(C)C5CC(C)(C)CC[C@]5(C)CC[C@]4(C)C3CC[C@@]21C (stereo not given in full)", "normalized growth": 1}
{"compound": "CO/N=C(/C(=O)NC1C(=O)N2C(C(=O)OCOC(=O)C(C)(C)C)=C(/C=C\\c3scnc3C)CSC12)c1csc(N)n1 (stereo not given)", "normalized growth": 1}
